Data origin: paper PMC5540273

- Tested on: PKN2
- measurement-context: concentration: 1 μM, replicates: in singlicate; n = 1;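 further: KINOMEscan kinase panel screen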
Below, each entry is listed alongside its reported %Inh.
Provide the reading as a plain figure in %.

Use these answered entries as a reference point.
>>> print(df.to_string())
                                   compound  reported_property  recorded_value
0  Cc1ccccc1COc1cc(-n2cnc3cc(Cl)ccc32)sc1C(N)=O [GW813349]               %Inh               0
1  Cl.NS(=O)(=O)c1cccc(Nc2cc(-c3ccc(F)cc3)n[nH]2)c1 [GW824645]               %Inh               0
2  COc1cccc(C2=C(N(C)c3ccccc3)C(=O)NC2=O)c1 [SB-334865]               %Inh               0
3  COc1ccc(Nc2nccc(N3CCC(NS(=O)(=O)c4ccc(NC(C)=O)cc4)C3)n2)cc1 (stereo not drawn) [GSK1379729]               %Inh               2
4  Cc1nn2c(=O)cc(N3CCOCC3)nc2n1Cc1cccc(Cl)c1Cl [GSK2342769]               %Inh               0
5  CN1C(=O)C(Nc2ccccc2)=C(c2ccccc2)C1=O [SB-300079]               %Inh               0

Per the records, this compound ( O=C(Nc1ccc2c(c1)OCO2)NC1CCN(c2ccnc(NCc3ccc(F)cc3)n2)CC1 [GSK1379859] ) has %Inh equal to 0

Please fill in: %Inh reported for COc1cc(Nc2nccc(N3CCC(NC(=O)C4COc5ccccc5O4)C3)n2)cc(OC)c1OC (stereo not drawn) [GSK1379761] = 7

Entry CC(C)(C)c1ccc(C(=O)Nc2cn3cc(-c4ccccc4)ccc3n2)cc1 — recorded %Inh = 16

Reported %Inh ( Cc1ccc(-c2ccc3c(ccc4sc5c(c43)NC[C@@H](C)N=C5N(C)C)n2)cn1 ) = 0

Value of measured %Inh for the entry CCC(=O)c1c(-c2ccccc2)c2cc(Cl)ccc2c(=O)n1Cc1cc(C(=O)NC2CC2)n(C)n1 : 0

%Inh reported for this compound Nc1n[nH]c2nnc(-c3ccccc3)c(-c3ccccc3)c12 [GW554060] : 3

// %Inh value for COc1cc2ncn(-c3cc(OCc4ccncc4Br)c(C(N)=O)s3)c2cc1OC [GW854278] : 0

====

- System: ERK1
- Construct: gene MAPK3
- measurement-context: concentration: 1 μM, replicates: in singlicate; n = 1
reported-property: %Inh (%)
Quick note: give the figure in %, leave out the unit.

Below, each entry is followed by its recorded %Inh result.
>>> df
                    structure_smiles_string  measured_on  recorded_value
0  CC(C)(C)c1ccc(C(=O)Nc2cn3cc(-c4ccccc4)ccc3n2)cc1         ERK1               0
1      O=C1NC(=O)C(c2ccccc2)=C1Nc1cccc(O)c1         ERK1               0
2  CCC(=O)c1c(-c2ccccc2)c2cc(Cl)ccc2c(=O)n1Cc1cc(C(=O)NC2CC2)n(C)n1         ERK1               0
3  CCC(=O)c1c(-c2ccccc2)c2cc(Cl)ccc2c(=O)n1Cc1cc(S(C)(=O)=O)n(CC(F)F)n1         ERK1               7

API: the following record is the query input.
Entry CN(C)c1cc(-c2ccc3c(N)n[nH]c3c2)nc(N)n1 ; %Inh = 15
